Test system: CCRIS mutagenicity, Ames/micronucleus/aberration tests
protocolNotes: CCRIS mutagenicity studies
statedConditions: Test System: Mouse lymphoma; Strain/Indicator: L5178Y (tk+/tk-); Metabolic Activation: None; Method: Suspension/plate
Text: The CCRIS database contains chemical records with carcinogenicity, mutagenicity, tumor promotion, and tumor inhibition test results. It was developed by the National Cancer Institute (NCI). Data are derived from studies cited in primary journals, current awareness tools, NCI reports, and other sources. Test results have been reviewed by experts in carcinogenesis and mutagenesis. CCRIS provides historical information from the years 1985 - 2011. It is no longer updated. […]
Active and inactive are the calls of the source. The rule behind the calls is not given here.
readoutKind: mutagenic call

INSERT INTO measurements (compound, readoutkind, measuredresult) VALUES
  ('O=C(O)CN(CCN(CC(=O)O)Cc1ccccc1O)Cc1ccccc1O', 'mutagenic call', 'active; positive'),
  ('Clc1ccccc1C(c1ccccc1)C(c1ccccc1)c1ccccc1Cl (configuration not stated)', 'mutagenic call', 'inactive; negative'),
  ('O=S(=O)(O)c1ccc(-c2nnc(-c3ccccn3)nc2-c2ccc(S(=O)(=O)O)cc2)cc1', 'mutagenic call', 'inactive; negative'),
  ('CC(C)(C)Cl', 'mutagenic call', 'inactive; negative');

// switching to the query compound
Recorded mutagenic call for c1ccc2nccnc2c1 with CCRIS mutagenicity, Ames/micronucleus/aberration tests, please?
inactive; negative

====

System: CCRIS mutagenicity, Ames/micronucleus/aberration tests
protocolNotes: CCRIS mutagenicity studies
statedConditions: Test System: AMES SALMONELLA TYPHIMURIUM; Strain/Indicator: TA98; Metabolic Activation: NONE; Method: PREINCUBATION
The source made the active and inactive calls. No rule for the calls is given here.
// allowed return values: active, inactive

# lookup: test call for Nc1cc(Cl)cc(S(=O)(=O)O)c1O
inactive

Write down the call the test reported for this compound. Item: Clc1nc2ccccc2nc1Cl
inactive

Would you mind telling me which call this test gave ClC(Cl)=C(Cl)Cl ?
inactive

What was the test verdict on O=NN1CSCC1C(=O)O (stereo not given) ?
inactive

Would you mind telling me which call this test gave CNNCc1ccc(C(=O)NC(C)C)cc1 ?
inactive

So what was the verdict on Cc1cccc2cc3ccc4ccccc4c3nc12 in this test?
inactive

Query: recorded result category for O=C1C=CC(=O)C(Cl)=C1 in this test
inactive

Status in this test for CCCCCC ?
inactive

What did this assay record as the result for CCN(CC)CCCC(C)Nc1cc(OC)cc2cccnc12 (stereo not given) ?
active

Returns: the outcome recorded for O=C1O[C@H]([C@@H](O)CO)C(O)=C1O in this assay.
inactive

Outcome logged for c1cc2ccc3cccc4ccc(c1)c2c34 in this assay:
inactive

Returns: the outcome recorded for CCOc1ccc(NC(C)=O)cc1 in this assay.
inactive

What is the recorded call for this compound in the test? CC1=CC(=O)C=CC1=O
inactive

Dear colleague, could you share the recorded outcome for CC(C)(c1ccc(O)cc1)c1ccc(O)cc1 when you have a moment?
inactive

What is the recorded call for this compound in the test? [Cl][Cr]([Cl])[Cl]
inactive

====

Test system: CCRIS mutagenicity, Ames/micronucleus/aberration tests
protocolNotes: CCRIS mutagenicity studies
statedConditions: Test System: AMES SALMONELLA TYPHIMURIUM; Strain/Indicator: TA98; Metabolic Activation: RAT, LIVER, S-9, AROCLOR; Method: STANDARD PLATE
Calls of active or inactive are those of the source. No rule for the calls is given here.
Respond only with the outcome that fits, drawn from YES for active, NO for inactive

Observe how each entry below is paired with its result.
INSERT INTO measurements (molecule, experimentaltarget, classassignment) VALUES
  ('Cc1nc2ccc3ccc4ccc(O)cc4c3c2o1', 'CCRIS mutagenicity, Ames/micronucleus/aberration tests', 'YES'),
  ('COc1cc(CNC(=O)CCCC/C=C/C(C)C)ccc1O', 'CCRIS mutagenicity, Ames/micronucleus/aberration tests', 'YES'),
  ('Cc1ccccc1C', 'CCRIS mutagenicity, Ames/micronucleus/aberration tests', 'NO'),
  ('Nc1ccc(-c2ccc(N)c(O)c2)cc1O', 'CCRIS mutagenicity, Ames/micronucleus/aberration tests', 'NO'),
  ('ClC(Cl)=C(Cl)Cl', 'CCRIS mutagenicity, Ames/micronucleus/aberration tests', 'NO');

Now for another entry.
Which result was noted for this molecule in the test: CCC(C)c1ccc(/C=C/c2ccc([N+](=O)[O-])cc2)cc1 (stereo unspecified)
YES

====

Test system: CCRIS mutagenicity, Ames/micronucleus/aberration tests
protocolNotes: CCRIS mutagenicity studies
statedConditions: Test System: AMES SALMONELLA TYPHIMURIUM; Strain/Indicator: TA97A; Metabolic Activation: NONE; Method: PREINCUBATION
Calls of active or inactive are those of the source. No rule for the calls is given here.
Write down the outcome that applies. Available outcomes: t (active), f (inactive)

# count of solved cases: 3
INSERT INTO results (chemicalstring, classassignment) VALUES
  ('Cc1cccc2cc3ccc4ccccc4c3nc12', 'f'),
  ('O=C1C=Cc2c(ccc3ccccc23)C1=O', 'f'),
  ('Cc1cccc2nc3c(ccc4ccccc43)cc12', 't');

What is the recorded call for this compound in the test? Cc1ccc2cc3ccc4ccccc4c3nc2c1
f

What call does the record list for CN=C=O ?
f

Called result for O=C1C=Cc2ccccc2C1=O
t

Per the records of this test, what outcome belongs to Cc1ccc2nc3c(ccc4ccccc43)cc2c1 ?
f

Test call for this compound, please: Cc1ncc(CO)c(CO)c1O
f

====

System: CCRIS mutagenicity, Ames/micronucleus/aberration tests
protocolNotes: CCRIS mutagenicity studies
statedConditions: Test System: AMES SALMONELLA TYPHIMURIUM; Strain/Indicator: TA1535; Metabolic Activation: NONE; Method: STANDARD PLATE
Text: The CCRIS database contains chemical records with carcinogenicity, mutagenicity, tumor promotion, and tumor inhibition test results. It was developed by the National Cancer Institute (NCI). Data are derived from studies cited in primary journals, current awareness tools, NCI reports, and other sources. Test results have been reviewed by experts in carcinogenesis and mutagenesis. CCRIS provides historical information from the years 1985 - 2011. It is no longer updated. […]
The source made the active and inactive calls. How the calls were made is not given here.
readoutKind: mutagenic call

INSERT INTO measurements (compound, measuredresult) VALUES
  ('O=C1c2ccccc2C(=O)c2c1cc(O)c(O)c2O', 'inactive; negative'),
  ('NC(=O)N/N=C/C(=O)O', 'inactive; negative'),
  ('CN=[N+](C)[O-]', 'inactive; negative'),
  ('N[C@@H](Cc1ccc(N(CCCl)CCCl)cc1)C(=O)O', 'active; positive'),
  ('Nc1ccc(S(N)(=O)=O)cc1', 'inactive; negative'),
  ('Nc1ccc2c(c1)C(=O)c1ccccc1C2=O', 'inactive; negative');

Quick one: mutagenic call of CN(C)N=Nc1ccc(Cl)cc1 ?
inactive; negative

Can you share its mutagenic call? I mean this compound: CC(C)CCCCCCOC(=O)CCCCC(=O)OCCCCCCC(C)C
inactive; negative

mutagenic call lookup needed for Cc1ccc(CCC2CO2)cc1 (stereo unspecified) , thanks.
active; positive

Recorded mutagenic call for O=[N+]([O-])c1ccc(N=Nc2ccc(N(CCO)CCO)cc2)c([N+](=O)[O-])c1 , please?
active; positive

Please report the recorded mutagenic call for COC(=O)c1ccccc1C(=O)OC .
inactive; negative

So what does the record say about mutagenic call for F ?
inactive; negative

# get_value(readout='mutagenic call', item= CC1CO1 (stereo unspecified) )
active; positive

Which value of mutagenic call has been reported for C=CC(=O)OCCCCCC in the records?
inactive; negative

May I ask what mutagenic call has been recorded for Nc1ccc(-c2ccc(N)c(O)c2)cc1O ?
inactive; negative

Could you tell me which mutagenic call is on file for C[C@]12CC[C@@H](OC(=O)/C=C/c3cccc(N(CCCl)CCCl)c3)C[C@@H]1CC[C@@H]1[C@@H]2CC[C@]2(C)NC(=O)CC[C@@H]12 ?
active; positive

====

Test system: CCRIS mutagenicity, Ames/micronucleus/aberration tests
protocolNotes: CCRIS mutagenicity studies
statedConditions: Test System: AMES SALMONELLA TYPHIMURIUM; Strain/Indicator: TA97; Metabolic Activation: NONE; Method: STANDARD PLATE
Activity calls are given as the source filed them. No rule for the calls is given here.
Outcome (select one): active, inactive

What was the test verdict on [Ag][I] ?
inactive

Hi, sorry to bother you, what did the test record for CCN(CC)C(=O)Nc1ccc(OCC(O)CNC(C)(C)C)c(C(C)=O)c1 (stereo not drawn) ?
inactive

For O=C(NCCCl)Sc1ncnc2nc[nH]c12 , what call appears in the results of this test?
inactive

// return assay outcome for O=C1OC(O)C(C(Cl)Cl)=C1Cl (stereo not drawn)
active

Would you mind telling me which call this test gave COc1cccc2c1C(=O)c1c(O)c3c(c(O)c1C2=O)C[C@@](O)(C(C)=O)C[C@@H]3O[C@H]1C[C@H](N)[C@H](O)[C@H](C)O1 ?
inactive

Record lookup: outcome of this test for N=c1c2ncn(C(c3ccccc3)(c3ccccc3)c3ccccc3)c2ncn1O ?
inactive
